Data origin: PubChem BioAssay (Tox21)

assayComment: qHTS RealTime-Glo MT Cell Viability Assay in HEK293 cells - 16 hour (AID 1224872); note: top concentration of the series differs between compounds; nearly all actives have a fitted effect of over 50% in size
experimentalParameters: RealTime-Glo luminescence; series mostly up to 76.8 µM
Text: National Center for Advancing Translational Sciences [NCATS] NIH Chemical Genomics Center [NCGC] U.S. Environmental Protection Agency [EPA] National Institutes of Environmental Health Sciences [NIEHS] National Toxicology Program [NTP] U.S. Food and Drug Administration [FDA] Measure of cell viability is critical in the cell-base assay. Analysis of cell viability is necessary for the characterization of cell responses to cytotoxic drugs and environmental stress. […]
Results filed as inconclusive are left out. Activity calls are given as the source filed them. Calls come from the whole dose curve; as a rule, active = well fitted cell-killing curve with a large enough effect in the repeat runs; inconclusive = weak or mixed curves, or effect the other way; inactive = flat fitted curve, though single readings scatter.
outcomeMeasure: activity change, negative = cytotoxicity

Known activity change, negative = cytotoxicity results, listed for orientation:
- CCOC(=O)NNc1nncc2ccccc12: inactive
- O=C(O)c1cc(C(=O)O)cc(S(=O)(=O)O)c1: inactive
- Cc1cnc(C(=O)NCCc2ccc(S(=O)(=O)NC(=O)NC3CCCCC3)cc2)cn1: inactive
- O=C(O)c1cc(=O)c2c(OCC(O)COc3cccc4oc(C(=O)O)cc(=O)c34)cccc2o1: inactive
- O=C1CCC(N2C(=O)c3ccccc3C2=O)C(=O)N1 (stereo not drawn): inactive

Provide activity change, negative = cytotoxicity for all items below, preserving their order.
1. CCCCCCCCCCCCCCCO
2. CC1=CCC2CC1C2(C)C (stereo not drawn)
3. Cc1ccc(S(N)(=O)=O)cc1
4. CSCCC=O
5. COc1cc(Cc2cnc(N)nc2N)cc(OC)c1OC

// result
["inactive", "inactive", "inactive", "inactive", "inactive"]

Provide activity change, negative = cytotoxicity for all items below, preserving their order.
1. Nc1cc([N+](=O)[O-])ccc1O
2. CCCCCCCCC/C=C/CC1CC(=O)OC1=O (stereo not drawn)
3. CCCSc1ccc2nc(NC(=O)OC)[nH]c2c1

// result
1. inactive
2. inactive
3. inactive
